Could you please report measured Non Amp - AMP (POC) 10 uM for the items listed next?
# Tested on: ovarian cancer cells with (OVCAR8, OVCAR4) or without (OVSAHO, CAOV3) MYC-HSF1 amplification
# method-description: Epigenetic inhibitor drug screen, cell viability (Cell Titer Blue)
# Type: cell-based
# condition-set: 10 uM, 48 hrs; average relative cell viability (vs 1% DMSO) of non-amplified cells (OVSAHO, CAOV3) minus that of MYC-HSF1 amplified cells (OVCAR8, OVCAR4); positive = greater response in amplified cells
Counter-ions that a name gives are not always drawn.
The figure you give is taken to be in POC; do not add the unit.

Query string: Item CCCCN(Cc1ccc(C(=O)NO)cc1)C(=O)Nc1ccccc1 [Nexturastat A] : provide Non Amp - AMP (POC) 10 uM
Result string: 23.67

Query string: Item COc1cc2c(NC3CCN(C4CCCCC4)CC3)nc(N3CCCN(C(C)C)CC3)nc2cc1OCCCN1CCCCC1 [UNC 0646] : provide Non Amp - AMP (POC) 10 uM
Result string: 45.25

Query string: Item COc1cc2c(cc1OC)C(=O)C(CC1CCN(Cc3ccccc3)CC1)C2 (centres unmarked) [Donepezil HCl] : provide Non Amp - AMP (POC) 10 uM
Result string: −4.516

Query string: Item COc1ccc(-c2nc(N3CCOCC3)c3sc(CN(C)c4ncc(C(=O)NO)cn4)cc3n2)cn1 [CUDC-907] : provide Non Amp - AMP (POC) 10 uM
Result string: 8.159

Query string: Item Cn1cc(C(=O)Nc2ccc3c(c2)OCCO3)c2ccccc2c1=O [CeMMEC1] : provide Non Amp - AMP (POC) 10 uM
Result string: −1.809

Query string: Item CCOC(=O)NNc1nncc2ccccc12 [Todralazine (hydrochloride), Todralazine] : provide Non Amp - AMP (POC) 10 uM
Result string: 13.07

Query string: Item O=C(c1ccc(/C=C/c2n[nH]c3ccccc23)cc1)N1CCNCC1 [KW 2449] : provide Non Amp - AMP (POC) 10 uM
Result string: 6.231

Query string: Item COc1cc2c(NC3CCN(C)CC3)nc(N3CCCN(C)CC3)nc2cc1OCCOCCN(C)C [UNC0321 (trifluoroacetate salt)] : provide Non Amp - AMP (POC) 10 uM
Result string: 0.4275

###

# Test system: ovarian cancer cells with (OVCAR8, OVCAR4) or without (OVSAHO, CAOV3) MYC-HSF1 amplification
# method-description: Epigenetic inhibitor drug screen, cell viability (Cell Titer Blue)
# Assay type: cell-based
# condition-set: 10 uM, 48 hrs; average relative cell viability (vs 1% DMSO) of non-amplified cells (OVSAHO, CAOV3) minus that of MYC-HSF1 amplified cells (OVCAR8, OVCAR4); positive = greater response in amplified cells
Where a name gives a salt, the structure may show the parent alone.
Could you please report measured Non Amp - AMP (POC) 10 uM for the items listed next?
The figure you give is taken to be in POC; do not add the unit.

Query string: Item CC(C)c1ccc(-c2cc(=O)c3ccccc3o2)cc1 : provide Non Amp - AMP (POC) 10 uM
Result string: −7.835

Query string: Item Nc1ccccc1NC(=O)CCCCCC(=O)Nc1ccccc1 : provide Non Amp - AMP (POC) 10 uM
Result string: 29.57

Query string: Item N#Cc1c(-c2ccccc2)cc(-c2cc(Br)ccc2O)[nH]c1=O : provide Non Amp - AMP (POC) 10 uM
Result string: 0.7424

Query string: Item N#CCNC(=O)c1ccc(-c2ccnc(Nc3ccc(N4CCOCC4)cc3)n2)cc1 : provide Non Amp - AMP (POC) 10 uM
Result string: −4.087

Query string: Item O=C(COc1cccc2c(=O)[nH]ccc12)c1ccccc1 : provide Non Amp - AMP (POC) 10 uM
Result string: −6.052

Query string: Item C1=C/COCc2cc(ccc2OCCN2CCCC2)Nc2nccc(n2)-c2cccc(c2)COC/1 [Pacritinib (SB1518), Pacritinib] : provide Non Amp - AMP (POC) 10 uM
Result string: −2.391

Query string: Item COc1cc2c(cc1O)CC[C@@H]1[C@@H]2CC[C@]2(C)[C@@H](O)CC[C@@H]12 : provide Non Amp - AMP (POC) 10 uM
Result string: 23.41

Query string: Item CCC(=O)N1CCOc2c(cc(-c3ccc(OC)c(OC)c3)cc2OC[C@H]2CCCN(C)C2)C1 [I-CBP112 (hydrochloride)] : provide Non Amp - AMP (POC) 10 uM
Result string: 20.48

Query string: Item O=C(NO)c1ccc(CC(=O)N(CCO)c2ccccc2)cc1 : provide Non Amp - AMP (POC) 10 uM
Result string: 18.14
